assay: solvent given as SMILES; details: in ClCCl
measure: absorption maximum (nm)
Report the figure in nm without appending any unit label.

COc1ccc(/C=C/C(=O)c2c(O)cc(C)oc2=O)cc1 = 384
CCCCC1=Cc2c3ccc4cccc5ccc(c6cc(-c7ccccc7)n(c26)P1(=O)c1ccccc1)c3c45 (stereo unspecified) = 430
CC(C)(C)c1cc2ccc3c(N(c4ccc(F)cc4)c4ccc(F)cc4)cc(N(c4ccc(F)cc4)c4ccc(F)cc4)c4ccc(c1)c2c34 = 414
CCOC(=O)C1=C(C(=O)OC)N2CCc3cc(OC)c(OC)cc3C2=C[C@H](c2ccc(Cl)cc2)C12c1ccccc1-c1ccccc12 = 310

Documented absorption maximum of COc1cc(-c2ncc(-c3ccncc3)o2)cc(OC)c1OC : 326

====

assay: solvent given as SMILES; conditions: in Cc1ccccc1
measure: absorption maximum (nm)
Report the figure in nm without appending any unit label.

Solved entries (count: 8):
CN(C)c1ccc(-c2c(/C=C3/C=Cc4ccccc4N3Cc3ccccc3)c(=O)c2=O)cc1 = 364
CC1=C(Cc2ccccc2)C(C)=[N+]2C1=C(C)c1c(C)c(-c3csc(N4CCOCC4)n3)c(C)n1[B-]2(F)F = 527
CN(C)/C=N\c1ccc2c3c(cccc13)C(=O)c1ccccc1-2 = 454
CCC1=C(C)C2=C(c3cc(C(=O)Cl)cc(C4=C5C(C)=C(CC)C(C)=[N+]5[B-](F)(F)n5c(C)c(CC)c(C)c54)c3)c3c(C)c(CC)c(C)n3[B-](F)(F)[N+]2=C1C = 534
CCCCOc1ccc(-c2cc3c(o2)c(-c2ccc(OCCCC)cc2)c2n3[B-](F)(F)[N+]3=Cc4c(-c5ccc(OCCCC)cc5)c5oc(-c6ccc(OCCCC)cc6)cc5n4[B-](F)(F)[N+]3=C2)cc1 = 626
CC1(C)c2ccccc2N(c2ccc(-c3nc([C@]45CC6CC(C[C@@H](C6)C4)C5)nc([C@]45C[C@H]6C[C@@H](C[C@H](C6)C4)C5)n3)cc2)c2ccccc21 = 367.8
CC(C)(C)c1ccc2c3c(c4ccc(C(C)(C)C)cc4c2c1)=[N+]1C(=C(c2ccccc2)c2cc4c5ccc(C(C)(C)C)cc5c5cc(C(C)(C)C)ccc5c4n2[B-]1(F)F)C=3 = 694
Cc1c2ccccc2c(C2=C3C=CC=[N+]3[B-](F)(F)n3cccc32)c2ccccc12 = 508

Documented absorption maximum of N#CC(C#N)=Cc1ccc2nc(C#Cc3ccc(N(c4ccc(C#Cc5nc6ccc(C=C(C#N)C#N)cc6s5)cc4)c4ccc(C#Cc5nc6ccc(C=C(C#N)C#N)cc6s5)cc4)cc3)sc2c1 : 440

Documented absorption maximum of CCOC(=O)COc1ccc(/C=C/c2c(CC)c(C)c3n2[B-](F)(F)[N+]2=C(c4[nH]c(C)c(CC)c4C)c4ccccc4C2=C3C)cc1 : 682

Documented absorption maximum of C#CC1CN2CCC1CC2[C@@H](O)c1ccnc2ccc(OC)cc12 (stereo partly specified) : 332

Documented absorption maximum of O=S(=O)(c1ccc(N2c3ccccc3[Si](c3ccccc3)(c3ccccc3)c3ccccc32)cc1)c1ccc(N2c3ccccc3[Si](c3ccccc3)(c3ccccc3)c3ccccc32)cc1 : 328

Documented absorption maximum of Cc1cccc2cc(-c3cc4cccc(C)c4oc3=O)oc12 : 376

====

experiment: solvent given as SMILES; conditions: in C1CCCCC1
Consider the following compounds and their measured absorption maximum readings.
Report the figure in nm without appending any unit label.

Documented absorption maximum of CCOC(=O)C(C(=O)OCC)C1=[N+]2C(=C(c3ccc(C)cc3)c3ccc(Cl)n3[B-]2(F)F)C=C1 : 514

Documented absorption maximum of COc1ccc(C#Cc2ccc(C#Cc3ccc(P(=O)(c4ccc(C#Cc5ccc(C#Cc6ccc(OC)cc6)cc5)cc4)c4ccc(C#Cc5ccc(C#Cc6ccc(OC)cc6)cc5)cc4)cc3)cc2)cc1 : 335

Documented absorption maximum of CN(C)c1ccc(-c2ccc(-c3cc(N4CCCCC4)c(C#N)c4c3-c3ccccc3CC4)cc2)cc1 : 353

Documented absorption maximum of COc1ccc(-c2ccc(-c3ccccc3)cc2)cc1 : 291

====

test: solvent given as SMILES; conditions: in CC#N
Use criterion met when the recorded absorption maximum is no lower than 400 nm; use criterion not met when it is lower.

Examples from the recorded data:
N#CC1=C(c2ccc(-c3cccs3)s2)CC1 = criterion not met
CCOC(=O)C1=C(C)NC2=C(C(=O)c3ccccc32)C1c1ccc(N(C)C)cc1 (stereo unspecified) = criterion not met
Nc1ccc(/C=C/c2ccccc2)cc1 = criterion not met
COc1ccc2c(c1)[n+]([O-])nc(N)[n+]2[O-] = criterion met
COC(=O)c1nc2cnc(N)nc2n1Cc1ccccc1 = criterion not met
Cc1cc2c(o1)c(C)cc1ccc(=O)oc12 = criterion not met
N#Cc1c(-c2ccccc2)cc(-c2ccccc2)[nH]c1=S = criterion met
O=P1(c2ccccc2)C2=C(c3ccccc31)C(c1ccccc1)(c1ccccc1)c1cc(N(c3ccccc3)c3ccccc3)ccc12 (stereo unspecified) = criterion met

In: In plain terms: is recorded absorption maximum at least 400 nm for Cc1ccc(-c2ccc(/C=C/c3ccccc3)cn2)nc1 ?
Out: criterion not met

====

assay: solvent given as SMILES; conditions: in CC1COC(=O)O1
measure: absorption maximum
Record the result as a number with its unit.

Solved entries (count: 3):
CN(C)c1ccc(/C=C/c2cc[n+](CCC[n+]3ccc(/C=C/c4ccc(N(C)C)cc4)cc3)cc2)cc1 = 485 nm
CN1CCN(c2ccc3c4c(cccc24)C(=O)c2ccccc2-3)CC1 = 459 nm
CN(C)c1cc(C#N)c(N(C)C)c(C#N)c1 = 394.48 nm

Now consider the entry below.
Documented absorption maximum of O=C1c2ccccc2-c2ccc(N3CCN(c4ccccc4)CC3)c3cccc1c23 : 445.6 nm

====

assay: solvent given as SMILES; conditions: in CCCCCC
Consider the following compounds and their measured absorption maximum readings.

CC1=CC(C)=[N+]2C1=Cc1c3ccccc3c(C#Cc3ccc(F)cc3)n1[B-]2(F)F = 609 nm
CN1C(=O)c2cccc3c(-n4c5ccccc5c5ccccc54)ccc(c23)C1=O = 402 nm
C/C=C/c1cccc(OC)c1 = 293 nm
CC1=CC(C)=[N+]2C1=C(c1ccc3cccnc3n1)c1c(C)cc(C)n1[B-]2(F)F = 506 nm

Documented absorption maximum of F[B-]1(F)n2c(c3cccc4cccc2c43)=Nc2cccc[n+]21 : 473 nm

Documented absorption maximum of CCC1=C(C)C2=Cc3c4ccccc4c4n3[B-](c3ccc5cc6ccccc6cc5c3)(Oc3ccccc3-4)[N+]2=C1C (stereo unspecified) : 626 nm

Documented absorption maximum of N#CSC1=CC2=C(c3ccccc3)c3ccc(SC#N)n3[B-](F)(F)[N+]2=C1N1CCOCC1 : 560 nm

Documented absorption maximum of COc1ccc2cc(-c3ccc(C)cc3)c(=O)oc2c1 : 338 nm

Documented absorption maximum of Nc1ccc(-c2ccc(N)cc2)cc1 : 279 nm

Documented absorption maximum of O=C1OC(=O)c2ccc(N(c3ccccc3)c3ccc4ccc5cccc6ccc3c4c56)c3cccc1c23 : 447 nm

Documented absorption maximum of C/C=C/c1ccc(OC)cc1 : 305 nm

Documented absorption maximum of F[B-]1(F)n2c(ccc2N2CCOCC2)C(c2ccccc2)=C2C=CC(N3CCOCC3)=[N+]21 : 573 nm

Documented absorption maximum of CCCCCCC(CCCCCC)n1c(=O)c2c3ccc4cccc5c6cccc7ccc(c2c1=O)c(c76)c3c45 : 334 nm

Documented absorption maximum of COc1ccc(-n2nc(C(=O)N3CCCC3)c(N3CCCC3)n2)cc1 : 332 nm

Documented absorption maximum of COc1cccc(OC)c1C1=C2C(C)=CC(C)=[N+]2[B-](F)(F)n2c(C)cc(C)c21 : 507 nm

Documented absorption maximum of CCC1=C(C)C2=Cc3c4ccccc4c4n3[B-](c3ccncc3)(Oc3ccccc3-4)[N+]2=C1C=Cc1ccc(OC)cc1 (stereo unspecified) : 698 nm

Documented absorption maximum of COc1ccc(-n2c(C)ccc2C)cc1 : 222 nm

Documented absorption maximum of CCN(CC)c1ccc2nc3c4ccccc4c(=O)cc-3oc2c1 : 508 nm

====

test: solvent given as SMILES; conditions: in ClCCl
measure: absorption maximum (nm)
Report the figure in nm without appending any unit label.

Solved entries (count: 5):
CCN(CC)c1ccc2cc(-c3nc4cc(C(=O)Nc5ccc(C)cc5[N+](=O)[O-])ccc4o3)c(=O)oc2c1 = 445
O=C1c2ccccc2-c2c(-c3cccc(Cl)c3O)[nH]c(=O)n21 = 391
c1cc2ccc3ccc(-n4c5ccccc5c5ccccc54)c4ccc(c1)c2c34 = 347
[O-][n+]1c(-c2ccccc2)cc(N2CCOCC2)nc1/C=C/c1ccccc1 = 445
Nc1ccc2c(ccc3[n+]2[B-](F)(F)n2c-3cc3c4ccccc4c4ccccc4c32)c1 = 482

Documented absorption maximum of COc1c2ccccc2c(OC)c2c(C#Cc3ccccc3)c3cc4sccc4cc3c(C#Cc3ccccc3)c12 : 656
